- Target entity: BIR2 domain of XIAP (Homo sapiens, UniProt P98170, C202A/C213G)
- Construct: 6× Histidine-tagged BIR2 domain, corresponding to amino acids 124-240 of XIAP
- Sequence (P98170 with tags, fused parts or gaps C202A/C213G): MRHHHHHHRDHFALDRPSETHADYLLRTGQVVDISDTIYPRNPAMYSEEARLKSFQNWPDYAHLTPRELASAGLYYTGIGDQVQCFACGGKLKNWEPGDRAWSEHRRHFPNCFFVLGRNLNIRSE
- Procedure details: TR-FRET assay for BIR2 (inhibition of binding of XIAP BIR2 domain to SMAC-derived Peptide A)
- Run conditions: 6x Histidine-tagged BIR2 domain (amino acids 124-240 of XIAP) 10 nM, Peptide A 20 nM
Experimental endpoint: IC50 (nM)

CN[C@@H](C)C(=O)N[C@H](C(=O)N1c2ncccc2C[C@H]1C(=O)Nc1ccncc1F)C(C)C :: 105
CNC(=O)c1ccc(NC(=O)[C@@H]2Cc3cccnc3N2C(=O)[C@@H](NC(=O)[C@H](C)NC)C(C)C)c(F)c1 :: 59.6
CN[C@@H](C)C(=O)N[C@H](C(=O)N1c2ncccc2C[C@@H]1C(=O)NCc1ccccc1)C(C)C :: 1800
CCc1ccccc1NC(=O)[C@@H]1Cc2cccnc2N1C(=O)[C@@H](NC(=O)[C@H](C)NC)C(C)C :: 104

[1] CC[C@H](NC)C(=O)N[C@H](C(=O)N1c2ncccc2C[C@H]1C(=O)Nc1ccccc1)C1CCCCC1
[2] CN[C@@H](C)C(=O)N[C@H](C(=O)N1c2ncccc2C[C@H]1C(=O)Nc1c(Cl)cc(Cl)cc1Cl)C(C)C
### Prompt Field: entry with larger IC50 (options 1 / 2 ). Reply briefly: the label of your chosen item.
### Response 1

All values here come from patent US9309248B2.
